- Tested on: OVCAR-8
- TEST: NCI-60 single-dose screen
- Format: cell-based
- MEASUREMENT_CONTEXT: Homo sapiens; OVCAR-8, 10^–5 M; read-out: GI (%)
MEASURED_QUANTITY: inhibition at 10 µM (%)

{"MOLECULE": "O=C1C(Nc2ccc(I)cc2)=CC(c2ccc(C(F)(F)F)cc2)N1c1ccc(I)cc1 (centres unmarked) [3e]", "MEASURED_QUANTITY": "inhibition at 10 µM", "OBS_VALUE": 43}
{"MOLECULE": "O=C1C(Nc2ccc(I)cc2)=CC(c2ccc3c(c2)OCO3)N1c1ccc(I)cc1 (centres unmarked) [3n]", "MEASURED_QUANTITY": "inhibition at 10 µM", "OBS_VALUE": 0}
{"MOLECULE": "COc1ccccc1C1C=C(Nc2ccc(I)cc2)C(=O)N1c1ccc(I)cc1 (centres unmarked) [3i]", "MEASURED_QUANTITY": "inhibition at 10 µM", "OBS_VALUE": 17}
{"MOLECULE": "O=C1C(Nc2ccc(I)cc2)=CC(c2ccc(Br)cc2)N1c1ccc(I)cc1 (centres unmarked) [3d]", "MEASURED_QUANTITY": "inhibition at 10 µM", "OBS_VALUE": 0}
{"MOLECULE": "O=C1C(Nc2ccc(I)cc2)=CC(c2ccco2)N1c1ccc(I)cc1 (centres unmarked) [3m]", "MEASURED_QUANTITY": "inhibition at 10 µM", "OBS_VALUE": 11}
{"MOLECULE": "N#Cc1ccc(C2C=C(Nc3ccc(I)cc3)C(=O)N2c2ccc(I)cc2)cc1 (centres unmarked) [3l]", "MEASURED_QUANTITY": "inhibition at 10 µM", "OBS_VALUE": 30}
{"MOLECULE": "O=C1C(Nc2ccc(I)cc2)=CC(c2ccc(Cl)cc2)N1c1ccc(I)cc1 (centres unmarked) [3c]", "MEASURED_QUANTITY": "inhibition at 10 µM", "OBS_VALUE": 11}
{"MOLECULE": "COc1ccc(C2C=C(Nc3ccc(I)cc3)C(=O)N2c2ccc(I)cc2)cc1OC (centres unmarked) [3j]", "MEASURED_QUANTITY": "inhibition at 10 µM", "OBS_VALUE": 0}
{"MOLECULE": "O=C1C(Nc2ccc(I)cc2)=CC(c2ccc(O)cc2)N1c1ccc(I)cc1 (centres unmarked) [3g]", "MEASURED_QUANTITY": "inhibition at 10 µM", "OBS_VALUE": 31}
{"MOLECULE": "O=C1C(Nc2ccc(I)cc2)=CC(c2ccc(O)c(O)c2)N1c1ccc(I)cc1 (centres unmarked) [3h]", "MEASURED_QUANTITY": "inhibition at 10 µM", "OBS_VALUE": 37}
{"MOLECULE": "O=C1C(Nc2ccc(I)cc2)=CC(c2ccc(F)cc2)N1c1ccc(I)cc1 (centres unmarked) [3b]", "MEASURED_QUANTITY": "inhibition at 10 µM", "OBS_VALUE": 8}
{"MOLECULE": "O=C1C(Nc2ccc(I)cc2)=CC(c2cc(C(F)(F)F)cc(C(F)(F)F)c2)N1c1ccc(I)cc1 (centres unmarked) [3f]", "MEASURED_QUANTITY": "inhibition at 10 µM", "OBS_VALUE": 26}
{"MOLECULE": "COc1cc(OC)c(C2C=C(Nc3ccc(I)cc3)C(=O)N2c2ccc(I)cc2)cc1OC (centres unmarked) [3k]", "MEASURED_QUANTITY": "inhibition at 10 µM", "OBS_VALUE": 0}
{"MOLECULE": "O=C1C(Nc2ccc(I)cc2)=CC(c2ccccc2)N1c1ccc(I)cc1 (centres unmarked) [3a]", "MEASURED_QUANTITY": "inhibition at 10 µM", "OBS_VALUE": 15}
